From: paper PMC11672294

Tested on: HT29
Conditions: 72 h, relative to DMSO; 10 µM
Counter-ions that a name gives are not always drawn.
quantity.kind: Relative cell viability (%) (%)
# output: bare number, implied unit %

The compound listed as CCOC(=O)c1cncn1[C@H](C)c1ccccc1 [Etomidate] shows Relative cell viability (%) equal to 60.28

compound CN1CCc2nc(C(=O)N[C@@H]3C[C@@H](C(=O)N(C)C)CC[C@@H]3NC(=O)C(=O)Nc3ccc(Cl)cn3)sc2C1 , Relative cell viability (%) observed: 95.73

For this compound ( COc1cc(C)c(/C=C/C(C)=C/C=C/C(C)=C/C(=O)O)c(C)c1C ), measured Relative cell viability (%) is 60.28

CNC[C@H](O)[C@@H](O)[C@H](O)[C@H](O)CO yielded Relative cell viability (%) of 172.9

Relative cell viability (%) in this record for C[C@@H]1C[C@H]2[C@@H]3CCC4=CC(=O)C=C[C@]4(C)[C@@]3(Cl)[C@@H](O)C[C@]2(C)[C@@]1(OC(=O)c1ccco1)C(=O)CCl [Mometasone furoate] : 144.2

Input CCN(CC)CCNC(=O)c1c(C)[nH]c(/C=C2\C(=O)Nc3ccc(F)cc32)c1C . Output Relative cell viability (%): 29.06

Query CCOC(=O)C1=C(C)NC(C)=C(C(=O)OCC)C1c1ccccc1/C=C/C(=O)OC(C)(C)C yields Relative cell viability (%) of 79.32

CN(C)[C@@H]1C(O)=C(C(N)=O)C(=O)[C@@]2(O)C(O)=C3C(=O)c4c(O)ccc(Cl)c4[C@@H](O)[C@H]3C[C@@H]12 [Demeclocycline HCl] yielded Relative cell viability (%) of 74.85

So for NC1=NCC2c3ccccc3Cc3ccccc3N12 (stereo not shown) [Epinastine HCl] , the logged Relative cell viability (%) turned out to be 78.48

For Cc1nnc(NS(=O)(=O)c2ccc(N)cc2)s1 the compound record lists Relative cell viability (%) as 202.3

Record Cc1oncc1C(=O)Nc1ccc(C(F)(F)F)cc1 [Leflunomide] , field Relative cell viability (%): 55.61

The value of Relative cell viability (%) measured for the compound C[C@@H]1CC[C@H]2[C@@H](C)C(=O)O[C@@H]3O[C@@]4(C)CC[C@@H]1[C@]32OO4 turned out to be 110.1

GET /value?item= O=C(NC(Cc1cc(=O)[nH]c2ccccc12)C(=O)O)c1ccc(Cl)cc1 (stereo not shown) [Rebamipide] &field=Relative cell viability (%) returns 125.4

Sure, the documented Relative cell viability (%) for Cc1cn([C@H]2O[C@@H](CO)[C@H](O)[C@H]2F)c(=O)[nH]c1=O is 97.09

Looking up C[C@]12C=CC(=O)C=C1CC[C@@H]1[C@@H]2[C@@H](O)C[C@@]2(C)[C@H]1CC[C@]2(O)C(=O)CO , I see its Relative cell viability (%) listed as 56.36

# compound OC[C@@H](O)[C@@H](O)[C@H](O)[C@H](O)CO ; its Relative cell viability (%) = 114.9
